Please go through the items and note down their activity change, negative = inhibition.
- measurement.description: Toxoplasma gondii ME49Luc growth in HeLa cells, luciferase, no IFN-y, primary screen (AID 1259421)
- experimental.setup: T. gondii ME49Luc in HeLa, 72 h, stronger effect = lower value, concentration not given here
Out of some 6,400 compounds screened, about 610 (9.5%) were called active. This excerpt belongs to a sample that is enriched for actives.
Numbers only here, please. The scale is %.

Exam item: Look up and report measured activity change, negative = inhibition for this entry: N#CC(O[C@@H]1O[C@H](CO[C@@H]2O[C@H](CO)[C@@H](O)[C@H](O)[C@H]2O)[C@@H](O)[C@H](O)[C@H]1O)c1ccccc1 (some centres undefined)
Marked response: 19

Exam item: Identify measured activity change, negative = inhibition associated with CN1C(=O)CN=C(c2ccccc2)c2cc(Cl)ccc21
Marked response: -6.2

Exam item: Check the records and state activity change, negative = inhibition for C[C@]12CC[C@H]3[C@@H](CCC4=CC(=O)CC[C@@H]43)[C@@H]1CC[C@@H]2O
Marked response: -79.7

Exam item: For the compound COc1ccc(C(=O)O)cc1OC , report activity change, negative = inhibition.
Marked response: 8.1

Exam item: Please report activity change, negative = inhibition for the following compound: C[C@]12CCC(=O)C=C1CC[C@@H]1[C@@H]2C(=O)C[C@]2(C)C(=O)CC[C@@H]12
Marked response: 8.66

Exam item: Look up activity change, negative = inhibition of CCN[C@@H](C)Cc1cccc(C(F)(F)F)c1 and report it.
Marked response: 3.99

Exam item: Give the value of activity change, negative = inhibition reported for the following: Oc1ccc2c(c1)[C@@]13CCCC[C@@]1(O)[C@@H](C2)N(CC1CCC1)CC3
Marked response: 18.4

Exam item: Note down activity change, negative = inhibition recorded for COC1=CC(=O)OC(/C=C/c2ccccc2)C1 (centres undefined)
Marked response: 9.89

Exam item: # return recorded activity change, negative = inhibition for input C=CCN1CCC23c4c5ccc(O)c4OC2/C(=N\NC(=O)c2ccccc2)CCC3(O)C1C5 (centres undefined)
Marked response: 25.6

Exam item: Return the recorded activity change, negative = inhibition value; entry: CCN1C[C@]2(OC(=O)c3ccccc3NC(C)=O)CCC(OC)[C@]34C1[C@H](CC23)[C@@]1(O)CC(OC)[C@H]2CC4C1(O)[C@H]2OC (some centres undefined)
Marked response: -6.02

Exam item: Output measured activity change, negative = inhibition for this item: O=C1CCC[C@@H]2[C@@H]3CCCN4CCC[C@H](CN12)[C@@H]34
Marked response: 15.2

Exam item: Return activity change, negative = inhibition for the following compound: CCCCC(CC)COC(=O)c1ccccc1C(=O)OCC(CC)CCCC (centres undefined)
Marked response: 9.98

Exam item: Fill in reported activity change, negative = inhibition for this entry: C/C=C(\C)C(=O)N[C@@H](c1ccccc1)[C@@H](O)C(=O)O[C@H]1C[C@@]2(O)[C@@H](OC(=O)c3ccccc3)[C@@H]3[C@]4(OC(C)=O)CO[C@@H]4C[C@H](O)[C@@]3(C)C(=O)[C@H](OC(C)=O)C(=C1C)C2(C)C
Marked response: -82.1

Exam item: Given CS(=O)(=O)Nc1ccc(Cc2noc(-c3ccc4[nH]cc(CCN)c4c3)n2)cc1 , respond with its activity change, negative = inhibition.
Marked response: 0.294

Exam item: Input C[C@]12CCC(=O)C=C1CCC1C2CC[C@@]2(C)C1CC[C@H]2O (some centres undefined) , output reported activity change, negative = inhibition.
Marked response: 2.85

Exam item: Look up activity change, negative = inhibition of CCCC1CC2=CC(=O)CCC2(C)C2CCC3(C)C(CCC3(O)CCC(=O)O)C12 (centres undefined) and report it.
Marked response: 13

Exam item: Give reported activity change, negative = inhibition value for C[C@H]1CCC/C=C/[C@@H]2C[C@H](O)C[C@H]2[C@H](O)/C=C/C(=O)O1
Marked response: -94.5

Exam item: State its activity change, negative = inhibition: C[C@]12CCC3c4ccc(OC(=O)N(CCCl)CCCl)cc4CCC3C1CC[C@@H]2O (some centres undefined)
Marked response: -52.4

Exam item: Please indicate activity change, negative = inhibition recorded for C[C@]12C=CC(=O)C=C1CCC1C2CC[C@]2(C)C(=O)CCC12 (some centres undefined)
Marked response: 3.57

Recorded values, source PubChem BioAssay AID1259421.
